Where these numbers come from: patent US20250074910A1

Target: Menin/MLL-4-43 peptide interaction (Homo sapiens (Human), UniProt O00255)
Sequence (O00255 whole entry, species assumed): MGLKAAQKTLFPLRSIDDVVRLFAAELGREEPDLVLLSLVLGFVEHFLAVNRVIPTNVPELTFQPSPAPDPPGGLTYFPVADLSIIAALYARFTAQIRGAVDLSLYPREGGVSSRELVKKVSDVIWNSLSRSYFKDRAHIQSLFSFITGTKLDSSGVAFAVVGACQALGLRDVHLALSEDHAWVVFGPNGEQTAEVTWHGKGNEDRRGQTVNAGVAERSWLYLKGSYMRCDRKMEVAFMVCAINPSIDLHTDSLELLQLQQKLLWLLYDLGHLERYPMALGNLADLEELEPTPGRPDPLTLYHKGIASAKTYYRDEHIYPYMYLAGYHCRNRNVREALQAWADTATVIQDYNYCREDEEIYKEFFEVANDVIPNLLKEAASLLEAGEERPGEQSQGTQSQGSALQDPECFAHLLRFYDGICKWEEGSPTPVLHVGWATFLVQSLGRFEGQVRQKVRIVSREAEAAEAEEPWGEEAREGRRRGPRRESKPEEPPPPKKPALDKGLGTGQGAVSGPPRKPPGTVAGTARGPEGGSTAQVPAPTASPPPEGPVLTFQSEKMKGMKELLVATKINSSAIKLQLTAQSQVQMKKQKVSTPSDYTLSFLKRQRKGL
Assay: Menin-MLL interaction inhibitory activity assay (fluorescence polarization competition)
Conditions: FITC-MLL4-43-peptide, Menin recombinant protein
measure.name: IC50 (nM)
The response must be a number in nM with no trailing unit.

Which IC50 value belongs to C=C1C[C@]2(CC[C@@H](CN3CCC4(CC3)CN(c3ncncc3Oc3ccc(F)cc3C(=O)N(C(C)C)C(C)C)C4)CC2)NC1=O ?
19.9

Which IC50 value belongs to CC(C)N(C(=O)c1cc(F)ccc1Oc1nncnc1N1CC2(CCN(CC3CC4CCC3CC43COC(=O)N3)CC2)C1)C(C)C (single isomer, unassigned) [Example 52-2b] ?
198

Which IC50 value belongs to CC(C)N(C(=O)c1cc(F)ccc1Oc1cncnc1N1CC2(CCN(CC3CC4CCC3CC43COC(=O)N3)CC2)C1)C(C)C (single isomer, unassigned) [Example 51-1] ?
35.3

Which IC50 value belongs to COC[C@H]1C[C@]2(CC[C@@H](CN3CCC4(CC3)CN(c3ncnnc3Oc3ccc(F)cc3C(=O)N(C(C)C)C(C)C)C4)CC2)NC1=O ?
16.3

Which IC50 value belongs to CC(C)N(C(=O)c1cc(F)ccc1Oc1cncnc1N1CC2(CCN(CC3CC4CCC3CC43COC(=O)N3)CC2)C1)C(C)C (single isomer, unassigned) [Example 51-2a] ?
70.7

Which IC50 value belongs to CC(C)N(C(=O)c1cc(F)ccc1Oc1cncnc1N1CC2(CCN(CC3CC4CCC3CC43CCC(=O)N3)CC2)C1)C(C)C (single isomer, unassigned) [Example 13-1a] ?
177

Which IC50 value belongs to CCN(C(=O)c1cc(F)ccc1Oc1cncnc1N1CC2(CCN(CC3CC4CCC3CC43CCC(=O)N3)CC2)C1)C(C)C (single isomer, unassigned) [Example 3-1] ?
29

Which IC50 value belongs to CC(C)N(C(=O)c1cc(F)ccc1Oc1cncnc1N1CC2(CCN(CC3CC4CCC3CC43CCC(=O)N3)CC2)C1)C(C)C (single isomer, unassigned) [Example 13-1] ?
21.3

Which IC50 value belongs to CC1C[C@]2(CC[C@@H](CN3CCC4(CC3)CN(c3ncnnc3Oc3ccc(F)cc3C(=O)N(C(C)C)C(C)C)C4)CC2)NC1=O (stereo partly drawn) [Example 41-2] ?
22.4

Which IC50 value belongs to CC(C)N(C(=O)c1cc(F)ccc1Oc1nncnc1N1CC2(CCN(CC3CC4CCC3CC43COC(=O)N3)CC2)C1)C(C)C (single isomer, unassigned) [Example 52-1] ?
135

Which IC50 value belongs to [2H]C([2H])([2H])C1C[C@]2(CC[C@@H](CN3CCC4(CC3)CN(c3ncnnc3Oc3ccc(F)cc3C(=O)N(C(C)C)C(C)C)C4)CC2)NC1=O (single isomer, unassigned) [Example 43-1] ?
12.4

Which IC50 value belongs to CC(C)N(C(=O)c1cc(F)ccc1Oc1nncnc1N1CC2(CCN(CC3CC4CCC3CC43CCC(=O)N3)CC2)C1)C(C)C (single isomer, unassigned) [Example 15-1a] ?
34.7

====

Test system: MOLM-13
Assay: Cell proliferation inhibition (CellTiter-Glo), MOLM-13
Format: cell-based
Conditions: Homo sapiens, MOLM-13, 168 h, MOLM-13 cells
Answer each item with its documented GI50.
The response must be a number in nM with no trailing unit.

Which GI50 value belongs to CC(C)N(C(=O)c1cc(F)ccc1Oc1nncnc1N1CC2(CCN(C[C@H]3CC[C@]4(CC3)CC(C(C)(C)O)C(=O)N4)CC2)C1)C(C)C (stereo partly drawn) [Example 59-1] ?
55.9

Which GI50 value belongs to CCN(C(=O)c1cc(F)ccc1Oc1nncnc1N1CC2(CCN(C[C@H]3CC[C@]4(CC3)CC(C)C(=O)N4)CC2)C1)C(C)C (single isomer, unassigned) [Example 40-1] ?
122

Which GI50 value belongs to COC[C@@H]1C[C@]2(CC[C@@H](CN3CCC4(CC3)CN(c3ncnnc3Oc3ccc(F)cc3C(=O)N(C(C)C)C(C)C)C4)CC2)NC1=O [Example 38-2] ?
23.3

====

Target: Menin/MLL-4-43 peptide interaction (Homo sapiens (Human), UniProt O00255)
Test: Menin-MLL interaction inhibitory activity assay (fluorescence polarization competition)
Format: binding
Conditions: FITC-MLL4-43-peptide, Menin recombinant protein
Answer each item with its documented pIC50.
Scale for pIC50: -log10 of concentration given in mol/L; no unit attached.

Which pIC50 value belongs to CC(C)N(C(=O)c1cc(F)ccc1Oc1cncnc1N1CC2(CCN(CC3CC4CCC3CC43CCC(=O)N3)CC2)C1)C(C)C (single isomer, unassigned) [Example 13-1b] ?
7.48

Which pIC50 value belongs to COC[C@@H]1C[C@]2(CC[C@@H](CN3CCC4(CC3)CN(c3ncnnc3Oc3ccc(F)cc3C(=O)N(C(C)C)C(C)C)C4)CC2)NC1=O [Example 38-2] ?
8.55

Which pIC50 value belongs to CCN(C(=O)c1cc(F)ccc1Oc1nncnc1N1CC2(CCN(C[C@H]3CC[C@]4(CC3)CC(C(C)(C)O)C(=O)N4)CC2)C1)C(C)C (single isomer, unassigned) [Example 58-1b] ?
8.23

Which pIC50 value belongs to CC(C)N(C(=O)c1cc(F)ccc1Oc1nncnc1N1CC2(CCN(CC3CCC4(CC3)COC(=O)N4)CC2)C1)C(C)C (centres unmarked) [Example 49] ?
7.38

Which pIC50 value belongs to CC(C)N(C(=O)c1cc(F)ccc1Oc1nncnc1N1CC2(CCN(C[C@H]3CC[C@@]4(CCC(=O)N4)CC3)CC2)C1)C(C)C [Example 8] ?
7.17

Which pIC50 value belongs to CC1C[C@]2(CC[C@@H](CN3CCC4(CC3)CN(c3ncncc3Oc3ccc(F)cc3C(=O)N(C(C)C)C(C)C)C4)CC2)NC1=O (some centres unmarked) [Example 39] ?
7.62

Which pIC50 value belongs to COCC1(COC)C[C@]2(CC[C@@H](CN3CCC4(CC3)CN(c3ncncc3Oc3ccc(F)cc3C(=O)N(C(C)C)C(C)C)C4)CC2)NC1=O [Example 18] ?
8.20

Which pIC50 value belongs to CCN(C(=O)c1cc(F)ccc1Oc1nncnc1N1CC2(CCN(C[C@H]3CC[C@]4(CC3)CC(=C(C)C)C(=O)N4)CC2)C1)C(C)C [Example 60] ?
7.55

Which pIC50 value belongs to CCN(C(=O)c1cc(F)ccc1Oc1cncnc1N1CC2(CCN(CC3CC4CCC3CC43CCC(=O)N3)CC2)C1)C(C)C (single isomer, unassigned) [Example 3] ?
7.62

Which pIC50 value belongs to CC(C)N(C(=O)c1cc(F)ccc1Oc1cncnc1N1CC2(CCN(C[C@H]3CC[C@]4(CC3)CC(C)(C)C(=O)N4)CC2)C1)C1CC1 [Example 23] ?
7.92

Which pIC50 value belongs to CCN(C(=O)c1cc(F)ccc1Oc1cncnc1N1CC2(CCN(C[C@H]3CC[C@]4(CC3)CC(COC)(COC)C(=O)N4)CC2)C1)C(C)C [Example 17] ?
8.30

Which pIC50 value belongs to CC(C)N(C(=O)c1cc(F)ccc1Oc1nncnc1N1CC2(CCN(CC3CC4CCC3CC43CCC(=O)N3)CC2)C1)C(C)C (single isomer, unassigned) [Example 15-1b] ?
6.85

Which pIC50 value belongs to CC(C)N(C(=O)c1cc(F)ccc1Oc1cncnc1N1CC2(CCN(CC3CC4CCC3CC43CCC(=O)N3)CC2)C1)C(C)C (single isomer, unassigned) [Example 13-2a] ?
7.78

Which pIC50 value belongs to CC(C)N(C(=O)c1cc(F)ccc1Oc1nncnc1N1CC2(CCN(CC3CC4CCC3CC43COC(=O)N3)CC2)C1)C(C)C (single isomer, unassigned) [Example 52-2a] ?
7.09

Which pIC50 value belongs to CC(C)N(C(=O)c1cc(F)ccc1Oc1nncnc1N1CC2(CCN(CC3CC4CCC3CC43COC(=O)N3)CC2)C1)C(C)C (single isomer, unassigned) [Example 52-1b] ?
7.41

Which pIC50 value belongs to CCN(C(=O)c1cc(F)ccc1Oc1cncnc1N1CC2(CCN(CC3CC4CCC3CC43COC(=O)N3)CC2)C1)C(C)C (single isomer, unassigned) [Example 50-2a] ?
7.68

Which pIC50 value belongs to CC(C)N(C(=O)c1cc(F)ccc1Oc1nncnc1N1CC2(CCN(C[C@H]3CC[C@]4(CC3)CC(C(C)(C)O)C(=O)N4)CC2)C1)C(C)C (single isomer, unassigned) [Example 59-1a] ?
8.11

Which pIC50 value belongs to CCN(C(=O)c1cc(F)ccc1Oc1cncnc1N1CC2(CCN(CC3CC4CCC3CC43COC(=O)N3)CC2)C1)C(C)C (single isomer, unassigned) [Example 50-2] ?
7.40

Which pIC50 value belongs to CC(C)N(C)C(=O)c1cc(F)ccc1Oc1nncnc1N1CC2(CCN(C[C@H]3CC[C@]4(CC3)CC(C)(C)C(=O)N4)CC2)C1 [Example 28] ?
6.87

Which pIC50 value belongs to CC(C)N(C(=O)c1cc(F)ccc1Oc1nncnc1N1CC2(CCN(C[C@H]3CC[C@]4(CC3)CC(C)(C)C(=O)N4)CC2)C1)C1CCC1 [Example 32] ?
7.41

Which pIC50 value belongs to CC1C[C@]2(CC[C@@H](CN3CCC4(CC3)CN(c3ncnnc3Oc3ccc(F)cc3C(=O)N(C(C)C)C(C)C)C4)CC2)NC1=O (some centres unmarked) [Example 41-1] ?
7.97

Which pIC50 value belongs to CCN(C(=O)c1cc(F)ccc1Oc1cncnc1N1CC2(CCN(CC3CC4CCC3CC43CCC(=O)N3)CC2)C1)C(C)C (single isomer, unassigned) [Example 4-2] ?
7.22

Which pIC50 value belongs to CC(C)N(C(=O)c1cc(F)ccc1Oc1nncnc1N1CC2(CCN(CC3CC4CCC3CC43CCC(=O)N3)CC2)C1)C1CC1 (centres unmarked) [Example 16-2] ?
6.79
